SYSTEM UNDER TEST: S-nitrosoglutathione reductase (GSNOR) (Homo sapiens)
Construct: made in house; host or cells: E. coli
Sequence (P11766 whole entry): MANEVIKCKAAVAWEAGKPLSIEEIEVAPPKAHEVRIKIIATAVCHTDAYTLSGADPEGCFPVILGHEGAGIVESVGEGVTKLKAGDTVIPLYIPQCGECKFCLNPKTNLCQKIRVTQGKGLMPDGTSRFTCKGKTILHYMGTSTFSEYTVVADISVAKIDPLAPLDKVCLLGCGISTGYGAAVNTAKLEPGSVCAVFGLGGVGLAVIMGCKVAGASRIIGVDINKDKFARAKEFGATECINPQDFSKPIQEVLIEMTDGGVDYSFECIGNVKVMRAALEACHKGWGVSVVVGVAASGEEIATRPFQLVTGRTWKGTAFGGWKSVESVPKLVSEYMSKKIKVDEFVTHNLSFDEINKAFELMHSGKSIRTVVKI
ASSAY PROTOCOL: GSNOR assay (inhibition of GSNOR activity, NADH absorbance at 340 nm)
Format: biochemical
RECORDED CONDITIONS: Table 8; GSNOR inhibition, IC50 range class a/b/c; read-out: IC50
Listing of entries alongside the reported IC50.

query: Give IC50 for Oc1ccc2nc(-c3ccc(-c4nnn[nH]4)cc3)sc2c1
result: 0.1 to 1 µM

query: Give IC50 for Cn1c(-c2ccc(C(=O)O)cc2)nc2ccc(O)cc2c1=O
result: < 0.1 µM

query: Give IC50 for O=C(O)c1ccc(-n2ccc3cc(O)ccc3c2=O)cc1
result: < 0.1 µM

query: Give IC50 for O=C(O)c1ccc(-c2cc(=O)c3cc(O)ccc3[nH]2)c(Cl)c1
result: 1 to 10 µM

query: Give IC50 for O=C1c2ccc(O)cc2CCN1[C@H]1CC[C@H](C(=O)O)CC1
result: 1 to 10 µM

query: Give IC50 for O=C(O)c1ccc(N2CCc3cc(O)ccc3C2=O)cc1
result: < 0.1 µM

***
query: Give IC50 for O=c1c2ccc(O)cc2ccn1[C@H]1CC[C@H](C(=O)O)CC1
result: 1 to 10 µM

query: Give IC50 for O=C(O)c1ccc(N2CCc3cc(O)ccc3C2)cc1
result: 1 to 10 µM

query: Give IC50 for Cc1cc2cc(O)ccc2c(=O)n1-c1ccc(C(=O)O)cc1
result: 0.1 to 1 µM

query: Give IC50 for CC1Cc2cc(O)ccc2C(=O)N1[C@H]1CC[C@H](C(=O)O)CC1 (stereo partly shown)
result: 1 to 10 µM
